Where do these numbers come from? They come from patent US20240059738A1.

Test system: rabbit anti-HRP antibodies (Fab region)
protocol.details: Papain treatment of immobilized antibody with bound fluorescently labeled switching peptide (FIG. 6B)
Format: binding
assay.conditions: after papain treatment compared to before
endpoint.name: increase of fluorescence intensity in the solution

Some sequences with known increase of fluorescence intensity in the solution results, for comparison:
VYYCAREPTGTGIYFDVWGK [H2, VYYCA REPTG TGIYF DVWGK] : 2,356%
TYLEWYPQKPGQSPKLLIYK [L1, TYLEW YPQKP GQSPK LLIYK] : 1,032%
VYYCFQGSHVPFTK [L2, VYYCF QGSHV PFTK] : 2,452%

API: the following record is the query input.
Request - read-out increase of fluorescence intensity in the solution | tested on rabbit anti-HRP antibodies (Fab region) | sequence SYWIHWVKQRPGQGLEWIGE [H1, SYWIH WVKQR PGQGL EWIGE]
2,184%
